Biological target: Id1 (Mus musculus, UniProt P20067)
Sequence (P20067 whole entry): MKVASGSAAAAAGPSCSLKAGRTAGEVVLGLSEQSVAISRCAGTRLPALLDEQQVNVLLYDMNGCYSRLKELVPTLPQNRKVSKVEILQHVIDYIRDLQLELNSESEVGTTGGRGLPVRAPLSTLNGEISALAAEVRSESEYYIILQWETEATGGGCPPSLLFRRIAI
PROPERTY_MEASURED: Kd

Kd for CCC(=O)N(CCC(c1ccc2c(c1)OCO2)c1ccccc1OC)Cc1ccccc1 (racemic) [AGX51] ?
~20 µM

###

System: EGI-1
Assay: Cholangiocarcinoma cell viability, EGI-1
Format: cell-based
PROPERTY_MEASURED: pIC50
pIC50 is defined as minus the log10 of a concentration measured in mol/L.

Which measured pIC50 value corresponds to COc1ccccc1C(CCNCc1ccccc1)c1ccc(OC(C)C)cc1 (stereo not shown) [AGX-A] ?
5.35

###

Tested on: PDX-BR7
Assay: MTT assay, PDX-BR7
Assay type: cell-based
Details: 24 h, PDX-BR7, PDX cell line, read-out: IC50 value after 24 hours of treatment
PROPERTY_MEASURED: IC50 (µM)
Give the value in µM but do not write µM after it.

Could you tell me which IC50 is on file for CCC(=O)N(CCC(c1ccc2c(c1)OCO2)c1ccccc1OC)Cc1ccccc1 (racemic) ?
10.9

###

System: HUCC-T1
Assay: Cholangiocarcinoma cell viability, HUCC-T1
Assay type: cell-based
Details: Homo sapiens, HuCCT-1
Procedure: Cell viability assays. Cell lines were seeded in a 96 well plate (5000 cells per well). […] Absorbance was then measured at 570 nm using a plate reader (Synergy 2, BioTek). Cell growth profiles were determined by seeding 38,000 cells in a 24-well plate, in triplicate for each time point, and counting the cells on days 1, 3 and 5 after seeding, using trypan blue exclusion of dead cells. […]
PROPERTY_MEASURED: IC50 (µM)
Response body: numeric value in µM, unit text excluded.

Consider the molecule shown here: CCC(=O)N(CCC(c1ccc2c(c1)OCO2)c1ccccc1OC)Cc1ccccc1 (racemic) What is its recorded IC50?
14.8

These data points were gathered from patent US20220356163A1.
